# target: NDM-1 (Klebsiella pneumoniae)
# Sequence (C7C422 whole entry, looked up, species assumed): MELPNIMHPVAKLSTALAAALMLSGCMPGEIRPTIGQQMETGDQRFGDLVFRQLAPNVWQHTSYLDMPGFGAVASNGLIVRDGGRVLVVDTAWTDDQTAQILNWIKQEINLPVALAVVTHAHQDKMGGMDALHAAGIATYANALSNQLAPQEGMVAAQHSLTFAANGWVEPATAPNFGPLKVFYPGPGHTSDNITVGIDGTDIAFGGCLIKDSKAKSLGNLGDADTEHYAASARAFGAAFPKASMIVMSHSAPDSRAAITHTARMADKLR
# methodNotes: biochemical
# Type: biochemical
# condition: CCF2-FA substrate, 2 hours at 25° C; read-out: NDM-1 IC50
valueKind: IC50 (nM)
Numbers only, in nM.

Your task in this section: give IC50 for each listed record.
1. NS(=O)(=O)c1c(S(=O)(=O)C2CNC2)ccc(-c2cccc3sc(O)nc23)c1-c1nn[nH]n1
2. Nc1nc2cc(-c3ccc(S(=O)(=O)C4CNC4)c(S(N)(=O)=O)c3-c3nn[nH]n3)ccn2n1
3. NS(=O)(=O)c1c(S(=O)(=O)C2CNC2)ccc(-c2csc(N3CCOCC3)n2)c1-c1nnn[nH]1.O=C(O)C(F)(F)F [Example 124, 2,2,2-trifluoroacetate]
4. NC(=O)c1cn2cccc(-c3ccc(S(=O)(=O)C4CNC4)c(S(N)(=O)=O)c3-c3nnn[nH]3)c2n1
5. NS(=O)(=O)c1c(S(=O)(=O)C2CNC2)ccc(-c2ccc3ncnn3c2)c1-c1nnn[nH]1.O=C(O)C(F)(F)F [Example 104, 2,2,2-trifluoroacetate]

Given back:
[0.0885, 1.49, 1.5, 0.131, 2.09]

Your task in this section: give IC50 for each listed record.
1. NS(=O)(=O)c1c(SC2CNC2)ccc(-c2cnc3ccccn23)c1-c1nn[nH]n1
2. Cn1c(N)nc2c(-c3ccc(S(C)(=O)=O)c(S(N)(=O)=O)c3-c3nn[nH]n3)cccc21

Given back:
1. 7.55
2. 1
